Recorded Emax by entry
Target: LPAR1 (Homo sapiens)
Construct: host or cells: U2OS
Sequence (Q92633 whole entry): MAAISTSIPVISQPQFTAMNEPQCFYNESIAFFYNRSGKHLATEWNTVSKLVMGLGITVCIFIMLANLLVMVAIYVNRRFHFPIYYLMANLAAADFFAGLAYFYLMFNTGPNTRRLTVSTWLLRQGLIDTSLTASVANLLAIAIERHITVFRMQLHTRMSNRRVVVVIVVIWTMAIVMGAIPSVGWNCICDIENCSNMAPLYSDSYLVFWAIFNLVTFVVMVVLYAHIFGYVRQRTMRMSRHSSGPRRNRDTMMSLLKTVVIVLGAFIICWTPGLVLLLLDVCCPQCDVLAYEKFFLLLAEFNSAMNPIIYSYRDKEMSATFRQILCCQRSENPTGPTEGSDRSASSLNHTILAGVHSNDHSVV
Assay: LPAR1 FLIPR Assay
Format: cell-based
Details: U2OS cells stably expressing LPAR1; LPA (EC80); Calcium 6 FLIPR dye; read-out: Maximum Inhibition
Unit % implied. Number only.

Please review the entries below; each comes with its answer.
COc1cc(C(=O)N(CCCCC(=O)O)CCCc2ccc(Cl)o2)cc(OC)c1C: 91
CCC1CCC(NC(=O)CN(CCCc2ccccc2)C(=O)c2cc(OC)c(C)c(OC)c2)(C(=O)O)CC1 (centres unmarked): 95

query: For the compound shown here, COc1cc(OC)cc(C(=O)N(CCCCC(=O)O)CCCc2cccc(F)c2)c1 , give the reported Emax.
result: 88

query: For the compound shown here, COc1cc(C(=O)N(CCCc2ccccc2)CCOCC(=O)O)cc(OC)c1C , give the reported Emax.
result: 94

query: For the compound shown here, COc1cc(OC(F)(F)F)cc(C(=O)N(CCCCC(=O)O)CCCc2ccccc2)c1 , give the reported Emax.
result: 79
